target: Human Lymphocyte PDE IV; assay: Human Lymphocyte cAMP Phosphodiesterase Assay (inhibition of PDE IV); format: biochemical; settings: Inhibition of Human Lymphocyte PDE IV (human B cell line 43D supernatant)
outcome.measure: pIC50
pIC50 here: minus log base 10 of the concentration, concentration in moles per litre.

cpd.smiles: O=c1c2cccnc2c(-c2cccc([N+](=O)[O-])c2)nn1Cc1ccncc1
pIC50: 9.64

Fill in pIC50 for record "O=c1c2cccnc2c(-c2cccc(Cl)c2)nn1Cc1ccncc1"
9.00

These entries and their values trace back to patent EP0612321B1.
